Assay: Hygroscopicity, dynamic moisture adsorption (DVS) test
Format: physicochemical
Details: DVS, 25° C., 80% RH
Where a name gives a salt, the structure may show the parent alone.
assay_readout: Moisture adsorption rate (%)

CC[C@@H](c1ccccc1)N1Cc2cc3c(cc2C[C@H]1C(=O)N[C@@H](Cc1ccc(-c2ccnc(C)c2C)cc1)C(=O)O)OC[C@H](c1ccc(OCc2ccc(Cl)c(Cl)c2)cc1)O3 [Crystal form B of hydrochloride]    0.8

1 = CC[C@@H](c1ccccc1)N1Cc2cc3c(cc2C[C@H]1C(=O)N[C@@H](Cc1ccc(-c2ccnc(C)c2C)cc1)C(=O)O)OC[C@H](c1ccc(OCc2ccc(Cl)c(Cl)c2)cc1)O3 [Crystal form C of sulfate]
2 = CC[C@@H](c1ccccc1)N1Cc2cc3c(cc2C[C@H]1C(=O)N[C@@H](Cc1ccc(-c2ccnc(C)c2C)cc1)C(=O)O)OC[C@H](c1ccc(OCc2ccc(Cl)c(Cl)c2)cc1)O3 [Crystal form C of p-toluenesulfonate]
3 = CC[C@@H](c1ccccc1)N1Cc2cc3c(cc2C[C@H]1C(=O)N[C@@H](Cc1ccc(-c2ccnc(C)c2C)cc1)C(=O)O)OC[C@H](c1ccc(OCc2ccc(Cl)c(Cl)c2)cc1)O3 [Crystal form C of hydrobromide]
[Q] Let's sort these by Moisture adsorption rate, smallest first. Go ahead? Give the labels in the order specified.
[A] 2, 3, 1
(2: 0.6%, 3: 1.4%, 1: 3.2%)

Data provenance: patent US12421245B2
